Exercise: for every item that follows, state its recorded IC50.
# Test system: SKBR3 (PI3Kα-Wild Type) cell line
# protocol: HTRF phospho-AKT(S473) cell assay in SKBR3 cells
# Type: cell-based, human
# settings: Homo sapiens, SK-BR-3; SKBR3 (PI3Kα-Wild Type) cells, HTRF phospho-AKT(S473), 2 hours compound incubation, PDGF-BB stimulated

Reference set (7 entries):
molecule | outcome measure | endpoint result
Cc1cc([C@@H](C)Nc2ccc(Cl)nc2C(=O)NS(C)(=O)=O)c2nc([C@@H]3CCCN(c4cc[nH]n4)C3)n(C)c(=O)c2c1 (relative stereo) [Compound 322] | IC50 | 1 to 5 µM
Cc1cc([C@@H](C)Nc2ccc(Cl)nc2C(=O)NS(C)(=O)=O)c2nc(-c3cnc(-c4cnn(C)c4)c(Cl)c3)n(C)c(=O)c2c1 [Compound 292] | IC50 | 1 to 5 µM
C[C@@H](Nc1ccc(Cl)nc1C(=O)NS(C)(=O)=O)c1cc(C2CC2)cc2c(=O)n(C)c(N3CCC(c4nn(C)cc4F)CC3)nc12 [Compound 397] | IC50 | ≥ 5 µM
Cc1cc([C@@H](C)Nc2ccc(Cl)nc2C(=O)NS(C)(=O)=O)c2nc(N3CCC[C@H](c4cnn(CC(F)(F)F)c4)C3)n(C)c(=O)c2c1 (relative stereo) [Compound 231] | IC50 | 1 to 5 µM
COc1cc(C2CCN(c3nc4c([C@@H](C)Nc5ccc(Cl)nc5C(=O)NS(C)(=O)=O)cc(C)cc4c(=O)n3C)CC2)n(C)n1 [Compound 325] | IC50 | 1 to 5 µM
Cc1cc([C@@H](C)Nc2ccc(Cl)nc2C(=O)NS(C)(=O)=O)c2nc(N3C[C@@H]4[C@H](C3)[C@H]4c3nn(C)cc3Cl)n(C)c(=O)c2c1 [Compound 401] | IC50 | ≥ 5 µM
Cc1cc([C@@H](C)Nc2ccc(Cl)nc2C(=O)NS(C)(=O)=O)c2nc(N3Cc4cn(-c5ccnc(C)c5)nc4C3)n(C)c(=O)c2c1 [Compound 146] | IC50 | 1 to 5 µM

Now for the molecule whose IC50 we want.
Answer with the recorded IC50 of Cc1cc([C@@H](C)Nc2ccc(Cl)nc2C(=O)NS(C)(=O)=O)c2nc(N3Cc4cccc(-c5cnn(C)c5)c4C3)n(C)c(=O)c2c1 [Compound 273] only.
≥ 5 µM

----------
# Test system: SKBR3 (PI3Kα-Wild Type) cell line
# protocol: HTRF phospho-AKT(S473) cell assay in SKBR3 cells
# Assay type: cell-based, human
# settings: Homo sapiens, SK-BR-3; HTRF phospho-AKT(S473), SKBR3 (PI3Kα-Wild Type) cells, 2 hours compound incubation, PDGF-BB stimulated
# Method: Compounds in the present disclosure were tested in a cell based HTRF phospho-AKT(S473) (CisBio/Revvity) assay in human breast cancer cell lines as a measurement of PIK3CA activity through measuring AKT, a downstream effector. The activity of mutant PI3Kα-H1047R and PI3Kα-Wild Type was measured in the T47D (PI3Kα-H1047R) and SKBR3 (PI3Kα-Wild Type) cell lines, respectively. […] The following day, plates were centrifuged for 1 minute at 1000 rpm, and read on a PHERAstar plate reader. […]
outcome measure: IC50

Some entries whose results are on file:
compound | IC50
Cc1cc([C@@H](C)Nc2ccc(Cl)nc2C(=O)NS(C)(=O)=O)c2nc(N3CC[C@H](Nc4ncc(Cl)cn4)C3)n(C)c(=O)c2c1 [Compound 738] | ≥ 5 µM
Cc1cc([C@@H](C)Nc2ccc(Cl)nc2C(=O)NS(C)(=O)=O)c2nc(N3C[C@@H]4[C@H](C3)[C@H]4c3n[nH]cc3C)n(C)c(=O)c2c1 [Compound 651] | 1 to 5 µM
COc1cc(N2C[C@@H]3C[C@H]2CN3c2nc3c([C@@H](C)Nc4ccc(Cl)nc4C(=O)NS(C)(=O)=O)cc(C)cc3c(=O)n2C)ccn1 [Compound 637] | ≥ 5 µM
Cc1cc([C@@H](C)Nc2ccc(Cl)nc2C(=O)NS(C)(=O)=O)c2nc(N3CC[C@@H](Oc4cnc(C)cn4)C3)n(C)c(=O)c2c1 [Compound 672] | 1 to 5 µM

I'm hoping you can list IC50 for every compound here, please.
1. Cc1ccc(N2C[C@H]3C[C@@H]2CN3c2nc3c([C@@H](C)Nc4ccc(Cl)nc4C(=O)NS(C)(=O)=O)cc(C)cc3c(=O)n2C)nc1 [Compound 609]
2. Cc1cc([C@@H](C)Nc2ccc(Cl)nc2C(=O)NS(C)(=O)=O)c2nc([C@H]3[C@@H]4CN(c5cnc(C)c(F)c5)C[C@@H]43)n(C)c(=O)c2c1 [Compound 828]
3. Cc1cc([C@@H](C)Nc2ccc(Cl)nc2C(=O)NS(C)(=O)=O)c2nc(N3C[C@@H]4[C@H](C3)[C@H]4c3nn(C)c(C)c3F)n(C)c(=O)c2c1 [Compound 462]

1: ≥ 5 µM; 2: ≥ 5 µM; 3: ≥ 5 µM
